Target: NCAM on rat hippocampal neurons (rat, UniProt P13596 20-858)
Sequence (P13596 20-858): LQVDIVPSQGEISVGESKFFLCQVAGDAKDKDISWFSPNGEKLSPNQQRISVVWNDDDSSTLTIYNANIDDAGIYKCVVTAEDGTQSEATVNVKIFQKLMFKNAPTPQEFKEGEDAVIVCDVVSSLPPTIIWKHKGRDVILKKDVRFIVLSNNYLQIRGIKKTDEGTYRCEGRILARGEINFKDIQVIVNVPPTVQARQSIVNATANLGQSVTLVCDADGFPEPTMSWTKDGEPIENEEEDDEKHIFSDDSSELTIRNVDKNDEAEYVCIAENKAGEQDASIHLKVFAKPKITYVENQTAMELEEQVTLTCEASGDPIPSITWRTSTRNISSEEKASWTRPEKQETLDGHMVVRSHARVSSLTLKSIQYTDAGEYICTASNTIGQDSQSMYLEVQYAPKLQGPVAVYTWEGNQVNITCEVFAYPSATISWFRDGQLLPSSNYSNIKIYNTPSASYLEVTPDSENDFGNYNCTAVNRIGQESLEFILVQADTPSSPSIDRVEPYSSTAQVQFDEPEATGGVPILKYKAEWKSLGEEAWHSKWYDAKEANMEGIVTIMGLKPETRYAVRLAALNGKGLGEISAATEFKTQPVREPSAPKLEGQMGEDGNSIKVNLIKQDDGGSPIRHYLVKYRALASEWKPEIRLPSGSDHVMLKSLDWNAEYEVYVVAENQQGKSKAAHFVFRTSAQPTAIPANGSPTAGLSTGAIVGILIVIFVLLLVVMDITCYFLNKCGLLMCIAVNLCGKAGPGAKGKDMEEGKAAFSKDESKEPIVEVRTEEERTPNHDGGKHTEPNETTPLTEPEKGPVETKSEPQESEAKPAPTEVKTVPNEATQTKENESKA
Assay: cell-based or functional assay
Ends that are not written are not given here.
# Neuritogenic effect, 1 µM NPY fragment (% of control) values compiled below
RESULT_TYPE: Neuritogenic effect, 1 µM NPY fragment (% of control)

{"BINDER": "PAEDMARYYSALRHYINLITRQR [NPY13-35]", "RESULT": "174 % of control"}
{"BINDER": "YPSKPDNPGEDAPAEDMARY [NPY1-20]", "RESULT": "97.8 % of control"}
{"BINDER": "YINLITRQRY-NH2 [NPY27-36]", "RESULT": "107 % of control"}
{"BINDER": "ALRHYINLITRQRA (ends and bridges not checked) [NPY23-36 ala36]", "RESULT": "89.1 % of control"}
{"BINDER": "ITRQRY-NH2 (also: Tyr36 (pos 6): amidated per mods, acetylation) [NPY31-36]", "RESULT": "100 % of control"}
{"BINDER": "ASALRHYINLITRQR [NPY21-35 ala21]", "RESULT": "95.4 % of control"}
{"BINDER": "RQRTILNIYHRLASYYRAMDEAPADEGPNDPKS [NPY3-35 reversed sequence]", "RESULT": "110 % of control"}
{"BINDER": "SALRHYINLITRQR [NPY22-35]", "RESULT": "104 % of control"}
{"BINDER": "LRHYINLITRQR [NPY24-35]", "RESULT": "96.9 % of control"}
{"BINDER": "RHYINLITRQRY-NH2 [NPY25-36]", "RESULT": "95.9 % of control"}
{"BINDER": "YSALRHYINLITRQR [NPY21-35]", "RESULT": "154 % of control"}
